Could you please report measured CMC for the items listed next?
assay: Critical micellar concentration (CMC) by ANS fluorescence; type: physicochemical; conditions: SO saponins, determined in PBS (Table A7)
Give your result in µM as a bare value.

Value of measured CMC for the entry CC(=O)OC1C(C)OC(OC2C(C)OC(OC(=O)[C@]34CCC(C)(C)CC3C3=CCC5[C@@]6(C)CC[C@H](OC7OC(C(=O)O)C(O)C(OC8OCC(O)C(O)C8O)C7OC7OC(CO)C(O)C(O)C7O)[C@@](C)(/C=N/NC(=O)CCCCCN7C(=O)C[C@H](SCCO)C7=O)C6CC[C@@]5(C)[C@]3(C)CC4O)C(OC3OC(C)C(OC4OCC(O)C(OC5OC(CO)C(O)C(O)C5O)C4O)C(O)C3O)C2O)C(O)C1OC1OCC(O)C(O)C1O (stereo partly drawn) : 50

Value of measured CMC for the entry CC(=O)OC1C(C)OC(OC2C(C)OC(OC(=O)[C@]34CCC(C)(C)CC3C3=CCC5[C@@]6(C)CC[C@H](OC7OC(C(=O)O)C(O)C(OC8OCC(O)C(O)C8O)C7OC7OC(CO)C(O)C(O)C7O)[C@@](C)(CO)C6CC[C@@]5(C)[C@]3(C)C[C@H]4O)C(OC3OC(C)C(OC4OCC(O)C(OC5OC(CO)C(O)C(O)C5O)C4O)C(O)C3O)C2O)C(O)C1OC1OCC(O)C(O)C1O (stereo partly drawn) : 135

Value of measured CMC for the entry CC(=O)OC1C(C)OC(OC2C(C)OC(OC(=O)[C@]34CCC(C)(C)CC3C3=CCC5[C@@]6(C)CC[C@H](OC7OC(C(=O)NC(C)(CO)CO)C(O)C(OC8OCC(O)C(O)C8O)C7OC7OC(CO)C(O)C(O)C7O)[C@@](C)(C=O)C6CC[C@@]5(C)[C@]3(C)C[C@H]4O)C(OC3OC(C)C(OC4OCC(O)C(OC5OC(CO)C(O)C(O)C5O)C4O)C(O)C3O)C2O)C(O)C1OC1OC(C)C(O)C(O)C1O (stereo partly drawn) : 50
